Target: AMPK
Assay: AMPK activation, enzyme-linked immunosorbent assay
Format: biochemical
Details: Table 8, compounds of Table 1
pEC50: −log10 of the molar value.

compound | pEC50
N#Cc1ccc(CN2CCC(Oc3ccc4oc(C(=O)NC5CCN(Cc6ccncc6)CC5)cc4c3)CC2)cc1 [Compound 1-79] | 6.30 to 7.00
CC(C)(C)OC(=O)N1CC[C@@H](NC(=O)c2cc3cc(OC4CCN(c5ccc(C(F)(F)F)cc5)CC4)ccc3o2)C1 [Compound 1-120] | 5.30 to 6.00
O=C(NC1CCN(C(=O)c2ccncc2)CC1)c1sc2cc(OC3CCN(c4ccc(C(F)(F)F)cc4)CC3)ccc2c1Cl [Compound 1-155] | > 7.00
CN(C(=O)c1cc2cc(OC3CCN(c4ccc(C(F)(F)F)cc4)CC3)ccc2o1)C1CCN(C(=O)c2ccncc2)CC1 [Compound 1-118] | 6.30 to 7.00
O=C(NCCCNCc1ccncc1)c1ccc(OC2CCN(c3ccc(C(F)(F)F)cc3)CC2)cn1 [Compound 1-50] | 5.30 to 6.00
CC(C)(C)OC(=O)N1CCC(NC(=O)c2cc3ccc(OC4CCN(c5ccc(OC(F)(F)F)cc5)CC4)cc3o2)CC1 [Compound 1-81] | 6.30 to 7.00
O=C(NC1CCN(Cc2cncnc2)CC1)c1ccc(OC2CCN(c3ccc(C(F)(F)F)cc3)CC2)cn1 [Compound 1-44] | 6.30 to 7.00

====

Biological target: AMPK
Experiment: AMPK activation, enzyme-linked immunosorbent assay
Assay type: biochemical
Conditions: Table 14, compounds of Table 7
quantity_kind: EC50

compound | observed_value
CC(=O)c1ccc(Oc2ccc(NC(=O)c3ccc(C(=O)N4CCC(C(=O)c5ccc(OC(F)(F)F)cc5)CC4)nc3)cn2)cc1 [Compound 7-70] | < 1000 nM
COc1ccc(C(=O)C2CCN(C(=O)c3ccc(C(=O)NC4CCN(Cc5ccc(OC)c(F)c5)C[C@@H]4C)cn3)CC2)cc1 (stereo partly drawn) [Compound 7-96] | < 1000 nM
COc1ccc(CN2CCC(NC(=O)c3ccc(C(=O)N4CCC(Oc5ccc(S(C)(=O)=O)c(C)c5)CC4)nc3)CC2)cc1 [Compound 7-16] | 1000 to 10000 nM
Cc1nc2cc(OC3CCN(C(=O)c4ccc(C(=O)NC5CCN(Cc6ccc(OC(F)(F)F)cc6)CC5)cn4)CC3)ccc2s1 [Compound 7-23] | < 1000 nM
COc1ccc(C(=O)C2CCN(C(=O)c3ccc(C(=O)NC4CCN(Cc5ccc(OC)c(F)c5)C[C@H]4F)cn3)CC2)cc1 (stereo partly drawn) [Compound 7-44] | < 1000 nM
CC(=O)c1ccc(OC2CCN(C(=O)c3ccc(C(=O)NC4CCN(Cc5ccc(OC(F)(F)F)cc5)C[C@H]4F)cn3)CC2)cc1 (stereo partly drawn) [Compound 7-52] | < 1000 nM

====

Molecular target: AMPK
Test: AMPK activation, enzyme-linked immunosorbent assay
Format: biochemical
Settings: Table 8, compounds of Table 1

cpd_smiles | EC50
NC(=O)c1ccc(CN2CCC(Oc3ccc4oc(C(=O)NC5CCN(Cc6ccccc6)CC5)cc4c3)CC2)cc1 | 100 to 500 nM
O=C(NC1CCN(Cc2ccncc2)CC1)c1ccnc(OC2CCN(c3ccc(C(F)(F)F)cc3)CC2)c1 | 500 to 1000 nM
O=C(NC1CCN(Cc2ccc(F)cc2)CC1)c1ccc(OC2CCN(c3ccc(C(F)(F)F)cc3)CC2)nc1 | < 100 nM
O=C(NC1CCN(Cc2ccncc2)CC1)c1sc2cc(OC3CCN(c4ccc(C(F)(F)F)cc4)CC3)ccc2c1Cl | < 100 nM
